Test: chemical genetic growth profiling, strain panel (AID 1159580);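 further: tested at 20 µM; growth read once vehicle control cultures reached saturation at 30 °C; lower values mean less growth of the strain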
Details: S. cerevisiae deletion strains, growth OD, locus YHR079C, strain IRE1 (second series)
Screen size: about 5,500 compounds; about 2,000 (36%) were called active. Not shown: some 18% with an inconclusive outcome. No stated cut-off is given here; in the data, active means normalized growth mostly below about 0.91 (no sharp cut-off); inconclusive means no clear call, values can overlap the other calls; inactive means mostly above about 0.92. Some of the results follow.
One label from this list, please: active, inactive

Clc1ccc(COC(Cn2ccnc2)c2ccc(Cl)cc2Cl)c(Cl)c1 (stereo not given)    active
Clc1ccc(CSC(Cn2ccnc2)c2ccc(Cl)cc2Cl)cc1 (stereo not given)    active
CC(=O)O[C@H]1C[C@@H](OC(C)=O)C(C)(C)C2C[C@@H](O)[C@]3(C)C(CC[C@@]4(C)[C@H](c5ccoc5)OC(=O)[C@H]5O[C@]543)[C@]21C (stereo not given in full)    inactive
CC12CCC3C(=CCc4cc(O)ccc43)C1CCC2=O (stereo not given)    inactive
CC1(C)C(=O)[C@@H]2O[C@@H]2[C@@]2(C)C1C[C@@H](O)[C@]1(C)C2CC[C@@]2(C)[C@H](c3ccoc3)OC(=O)C3OC321 (stereo not given in full)    inactive
COc1c(C)c2c(c(O)c1C/C=C(\C)CCC(=O)O)C(=O)OC2    active
Fc1ccc([C@@H]2CCNC[C@H]2COc2ccc3c(c2)OCO3)cc1    inactive
NCCCNCCSP(=O)(O)O    inactive

As a next step, examine the molecule that follows.
Record request — test call for CC(=O)Oc1ccc2c(c1)CCC1C2CC[C@]2(C)C(=O)CCC12 (stereo not given in full)
inactive
